# Measurement Parameters: Liquid; pulse-heating method
Property Label: Critical temperature (K)

{"Query Smiles": "O=C(O)CCCCc1ccccc1", "Uom": "K", "Number": 790}
{"Query Smiles": "O=C(O)Cc1ccccc1", "Uom": "K", "Number": 766}
{"Query Smiles": "O=C(O)CCc1ccccc1", "Uom": "K", "Number": 776}
{"Query Smiles": "O=C(O)CCCCCc1ccccc1", "Uom": "K", "Number": 794}
{"Query Smiles": "O=C(O)CCCc1ccccc1", "Uom": "K", "Number": 783}
{"Query Smiles": "O=C(O)CCCCCCc1ccccc1", "Uom": "K", "Number": 798}

###

# Measurement Parameters: Liquid; pulse-heating method
Property Label: Critical pressure (kPa)

{"Query Smiles": "O=C(O)CCCCc1ccccc1", "Uom": "kPa", "Number": 2950}
{"Query Smiles": "O=C(O)CCCCCCc1ccccc1", "Uom": "kPa", "Number": 2470}
{"Query Smiles": "O=C(O)CCCc1ccccc1", "Uom": "kPa", "Number": 3210}
{"Query Smiles": "O=C(O)CCc1ccccc1", "Uom": "kPa", "Number": 3460}
{"Query Smiles": "O=C(O)Cc1ccccc1", "Uom": "kPa", "Number": 3950}
{"Query Smiles": "O=C(O)CCCCCc1ccccc1", "Uom": "kPa", "Number": 2600}
